Biological target: human PDE2A1 (Homo sapiens, UniProt O00408)
Construct: GST; purchased BPS Bioscience (San Diego, Calif.) 60020; host or cells: insect cells
Sequence (O00408 1-920 isoform O00408-2): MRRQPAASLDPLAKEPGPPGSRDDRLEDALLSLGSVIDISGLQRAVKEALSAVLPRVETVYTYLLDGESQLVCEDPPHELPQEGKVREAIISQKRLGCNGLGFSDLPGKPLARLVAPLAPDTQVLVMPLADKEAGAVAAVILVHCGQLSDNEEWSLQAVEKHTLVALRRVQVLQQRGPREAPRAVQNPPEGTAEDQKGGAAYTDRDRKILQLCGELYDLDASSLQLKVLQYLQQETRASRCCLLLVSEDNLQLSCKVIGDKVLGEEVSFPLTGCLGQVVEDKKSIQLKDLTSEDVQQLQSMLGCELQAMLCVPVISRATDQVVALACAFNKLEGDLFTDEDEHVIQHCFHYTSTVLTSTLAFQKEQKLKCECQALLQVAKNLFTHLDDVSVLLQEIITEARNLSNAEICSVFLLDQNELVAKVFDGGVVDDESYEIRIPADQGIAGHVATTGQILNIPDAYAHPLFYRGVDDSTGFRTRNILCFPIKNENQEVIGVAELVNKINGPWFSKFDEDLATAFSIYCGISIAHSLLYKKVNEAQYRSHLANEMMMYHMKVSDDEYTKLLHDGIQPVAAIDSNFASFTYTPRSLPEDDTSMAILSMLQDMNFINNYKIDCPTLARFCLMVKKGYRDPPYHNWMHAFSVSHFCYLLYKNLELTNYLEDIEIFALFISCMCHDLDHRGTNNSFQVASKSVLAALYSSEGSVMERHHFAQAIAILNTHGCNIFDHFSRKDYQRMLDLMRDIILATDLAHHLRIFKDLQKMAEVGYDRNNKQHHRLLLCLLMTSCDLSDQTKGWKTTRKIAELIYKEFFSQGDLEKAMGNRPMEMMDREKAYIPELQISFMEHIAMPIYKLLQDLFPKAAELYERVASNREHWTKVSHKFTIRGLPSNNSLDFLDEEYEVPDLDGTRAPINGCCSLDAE
Experiment: IMAP FP PDE selectivity panel, human PDE2A1
Format: biochemical
Settings: Lab B; read-out: Human PDE2 Ki (nM) Lab B
Method: Selectivity for PDE2, as compared to other PDE families, was assessed using the IMAP® technology. Human PDE10A2 enzyme was prepared from cytosolic fractions of transiently transfected HEK cells. Assays for PDE 1 through 11 were performed in parallel at room temperature in 384-well microtiter plates with an incubation volume of 20.2 μL. […] The intrinsic PDE2 inhibitory activity of a compound which may be used in accordance with the present invention may be determined by these assays.

compound | experimental.system | result.modifier | Ki (nM)
CC(C)(O)C(Nc1cc(C2CC2)nc2ncnn12)c1ccc(OC(F)(F)F)cc1F (single isomer, unassigned) [Example 142] | human PDE2A1 (Homo sapiens, UniProt O00408) | > | 2960
Cc1cc(N[C@H](C)c2ccc(C(F)(F)F)c(F)c2)n2ncnc2n1 | human PDE2A1 (Homo sapiens, UniProt O00408) | = | 115
CC(C)(C)c1cc(NC(c2ccc(OC(F)(F)F)c(F)c2)C(C)(C)O)n2ncnc2n1 (single isomer, unassigned) [Example 146] | human PDE2A1 (Homo sapiens, UniProt O00408) | > | 2960
Fc1cc(C2(Nc3cc(C(F)F)cc4ncnn34)CC2)ccc1C(F)(F)F | human PDE2A1 (Homo sapiens, UniProt O00408) | = | 11
Cc1cc(NC(c2ccc(C(F)(F)F)nc2)C(C)(C)O)n2ncnc2n1 (single isomer, unassigned) [Example 226] | human PDE2A1 (Homo sapiens, UniProt O00408) | = | 356
Cc1cc(N[C@@H](c2ccc(C3CC3)cc2F)C(C)C)n2ncnc2n1 | human PDE2A1 (Homo sapiens, UniProt O00408) | = | 9.9
Cc1cc(N[C@H](c2ccc(OC(F)(F)F)cc2)C(C)(C)O)n2ncnc2n1 | human PDE2A1 (Homo sapiens, UniProt O00408) | > | 2960
Cc1cc(NC(C)(C)c2ccc(SC(F)(F)F)c(F)c2)n2ncnc2n1 | human PDE2A1 (Homo sapiens, UniProt O00408) | = | 182
Cc1cc(NC(c2ccc(C(F)F)cc2)C(C)(C)O)n2ncnc2n1 (single isomer, unassigned) [Example 108] | human PDE2A1 (Homo sapiens, UniProt O00408) | = | 49
CC(C)(O)C(Nc1cc(C(F)(F)F)nc2ncnn12)c1ccc(C(F)(F)F)c(F)c1 (single isomer, unassigned) [Example 214] | human PDE2A1 (Homo sapiens, UniProt O00408) | = | 25
CC(C)(C)c1cc(NC(c2ccc(S(F)(F)(F)(F)F)cc2)C(C)(C)O)n2ncnc2n1 (single isomer, unassigned) [Example 150] | human PDE2A1 (Homo sapiens, UniProt O00408) | > | 2960
CC(C)(O)C(Nc1cc(C(F)(F)F)nc2ncnn12)c1ccc(C(F)(F)F)cc1F (single isomer, unassigned) [Example 174] | human PDE2A1 (Homo sapiens, UniProt O00408) | = | 29
Cc1cc(N[C@@H](c2ccc(OC(F)(F)F)cc2Cl)C(C)(C)O)n2ncnc2n1 | human PDE2A1 (Homo sapiens, UniProt O00408) | = | 4.3
Cc1cc(N[C@H](c2ccc(F)c(OC(F)(F)F)c2)C(C)(C)O)n2ncnc2n1 | human PDE2A1 (Homo sapiens, UniProt O00408) | > | 2960
Cc1cc(N[C@@H](c2ccc(S(F)(F)(F)(F)F)cc2)C2CC2)n2ncnc2n1 | human PDE2A1 (Homo sapiens, UniProt O00408) | = | 22
